Consider the following sequences and their measured protein stability index readings.
# PROCEDURE_SUMMARY: protein stability index of a GFP-peptide fusion (yeast GPS) (PSI 1-4); higher = more stable; sorted into four equal gates, so the index is relative within each strain
# CONDITION_DESCRIPTION: san1∆

{"columns": ["QUERY_SEQUENCE", "protein stability index"],
 "data": [
  ["ERRMQVTAEDFKQAKER [RPT2]", 3],
  ["HKSPNLSLMLESPNYCN [SRB4]", 2.64],
  ["MAQNKTHIPQTNLKNHP [YLR018C/POM34]", 2.75],
  ["ILTPESQLKKSKAQQKT [RPL7A]", 2.98],
  ["RNARAARAAKIAPRPLD [RPL13B]", 3.14],
  ["VSSLPGSTDKSLDFLNQ [COR1]", 3.02],
  ["RPLQKIMLLQLELGSCF [SIN4]", 1.79],
  ["GYGSNKKTKFLSPSGHK [RPL32]", 2.62],
  ["TLSVSHGINLQNKKNLK [SSN2]", 2.65],
  ["MNMFGGGMGGGMGGGMP [SRP54]", 1.69],
  ["LEHLHSTAFQNTPLSLP [COR1]", 2.35],
  ["VANVKDLETLTMHTKTY [RPL32]", 2.98],
  ["VSMKANKYQIKKAVKEL [RPL25]", 2.98],
  ["QIMQLKKICNHPFVFEE [SNF2]", 2.53]
]}
